This collection of values is drawn from ChEMBL document CHEMBL4513146.

system: Candida albicans; settings: Concentration 32 ug.mL-1; ASSAY_TEST Inhibition of Fungal Growth; detection method Absorption (OD530)
Description: Antifungal activity against Candida albicans ATCC 90028 (CO-ADD:FG_001); MIC in YNB media using NBS plates, by OD630
Results with a measured potency or affinity are listed apart.
Kindly state Inhibition for each of the entries shown.
One number for each entry, in %.

Reference set, count: 4
{"structure notation": "COc1cc(NC(=O)CSc2nnc3c(=O)n(-c4ccc(C)c(C)c4)ccn23)cc(OC)c1", "unit tag": "%", "Inhibition": 1.66}
{"structure notation": "CC(C)Cn1c(=O)c2sccc2n2c(=O)n(Cc3ccc(N4CCCC4=O)cc3)nc12", "unit tag": "%", "Inhibition": 1.08}
{"structure notation": "O=c1n(Cc2nc(-c3ccc(Br)cc3)no2)nc2ccc(-c3ccccc3)nn12", "unit tag": "%", "Inhibition": 1.04}
{"structure notation": "Cc1cccc(NC(=O)Cn2nc3c(SCc4ccc(Cl)cc4)nccn3c2=O)c1C", "unit tag": "%", "Inhibition": 5.99}

Please state Inhibition for every molecule in the list that follows.
1. COc1ccccc1NC(=O)Cn1nc2c3c4c(sc3ncn2c1=O)CCCC4
2. Cc1nnc2c(=O)n(CC(=O)Nc3ccccc3Cl)c3ccccc3n12
3. CCOc1ccc(C(=O)Cn2nc3n(Cc4ccccc4OC)c(=O)c4sccc4n3c2=O)cc1
4. Cc1nnc2ccc(S(=O)(=O)N(Cc3cccc(Cl)c3)c3ccc(F)cc3)cn12
5. COc1ccc(N(Cc2ccccc2F)S(=O)(=O)c2ccc3nnc(C)n3c2)cc1
6. CC(C)c1nnc2c(SCC(=O)Nc3ccc(Br)cc3F)nc3ccccc3n12

1. 0.98
2. 1.36
3. 6.12
4. 2.21
5. -0.01
6. 0.43
